# System: SF-539 CNS
# procedure_text: NCI tumour cell line growth inhibition, 48 h
measurement_type: TGI

Use the examples below as a reference point.
C[C@H]1C(=O)CC[C@]2(C)CCC(C(C)(C)O)CC12O (stereo partly specified): > 100 µM
COC(=O)C1=C(C)N2CCOC2CC1c1ccccc1 (stereo unspecified): > 100 µM
CC(C)(C)S(=O)OC12CC3CC(CC(C3)C1)C2 (stereo unspecified): > 100 µM

// for each compound in input: emit TGI
1. O=C(NO)c1ccc(O)c(O)c1
2. C/C(=N\Nc1nc2ccccc2s1)c1cc(C)ncn1
3. COc1ccc(CCNCCCC2c3ccccc3-c3ccccc32)cc1OC
4. O=C(CSC1=NNC2(C(=O)N1)c1ccccc1-c1ccccc12)NC(=S)Nc1ccccc1
5. Cn1c2ccccc2c(=O)c2[nH]c3ccccc3c21

// result
> 100 µM
35 µM
30.8 µM
> 10 µM
> 100 µM

// for each compound in input: emit TGI
1. CCN(CC)CCO/N=C1/C=C2CCC3C(CC[C@@]4(C)C3CC[C@]4(C)O)[C@@]2(C)CC1 (stereo partly specified)
2. O=C1OC(OCC#CCOC2OC(=O)C(Cl)=C2Cl)C(Cl)=C1Cl (stereo unspecified)
3. Cc1cc2c(cc1N)C(C)C1(CCC(=O)N2Cc2ccccc2)OCCO1 (stereo unspecified)

// result
1. 14.9 µM
2. 31.8 µM
3. > 100 µM
